Hi! I'm sharing some CC50 results obtained with SNB-19.

C=C1C(=O)O[C@H]2[C@H]1CC/C(COC(=O)CCC(=O)NCCCCCCCCCNC(=O)CCC(=O)OC/C1=C/CC[C@@]3(C)O[C@H]3[C@H]3OC(=O)C(=C)[C@@H]3CC1)=C\CC[C@@]1(C)O[C@@H]21 :: > 100 µM

Consider the additional compound presented here.
**Query** State CC50 on SNB-19. Entry: C=C1C(=O)O[C@H]2[C@H]1CC/C(COC(=O)CCC(=O)NCCCCCCCCNC(=O)CCC(=O)OC/C1=C/CC[C@@]3(C)O[C@H]3[C@H]3OC(=O)C(=C)[C@@H]3CC1)=C\CC[C@@]1(C)O[C@@H]21
**Result** > 100 µM
